Numbers sourced from paper PMC5303205.

# Protocol Text: Multi-component pharmacokinetics of AAs in rats after oral administration of AF and HAF extracts (HPLC-MS/MS of plasma)
# Design: species or system Sprague–Dawley (SD) rats
# Recorded Conditions: Sprague-Dawley, rat, in vivo, 8 mg/kg, HAF extract, mid dose (8.0 mg/kg as AA I), analyte dose mg/kg: AA I 8.0, AA II 0.69, AA C 4.09, AA D 4.03, 7-OH AA I 6.62, n = 6
# Procedure: An aliquot (100 μl) of rat plasma was spiked with 10.0 μL IS, and vortexed with 300 μL acetic ether for 10 s before the supernatant was transferred into centrifuge tube. The extraction was repeated with 200 μL acetic ether. […] After the oral administration of AF and HAF extracts, rat plasma samples were prepared and analyzed as described above. Five main AAs can be detected in rat blood with the proposed HPLC-MS/MS method. […]
Property: AUC(0-inf) (ng·h/mL)

1. O=C(O)c1cc2c(c3c1c([N+](=O)[O-])cc1ccccc13)OCO2: 3870
2. COc1c(O)ccc2c1cc([N+](=O)[O-])c1c(C(=O)O)cc3c(c12)OCO3: 991
3. COc1cccc2c1cc([N+](=O)[O-])c1c(C(=O)O)cc3c(c12)OCO3: 8990
4. COc1cc(O)cc2c1cc([N+](=O)[O-])c1c(C(=O)O)cc3c(c12)OCO3: 323

* * *

# Protocol Text: Multi-component pharmacokinetics of AAs in rats after oral administration of AF and HAF extracts (HPLC-MS/MS of plasma)
# Set-up: species or system Sprague–Dawley (SD) rats
# Recorded Conditions: Sprague-Dawley, rat, in vivo, 3 mg/kg, HAF extract, low dose (3.0 mg/kg as AA I), analyte dose mg/kg: AA I 3.0, AA II 0.26, AA C 1.53, AA D 1.51, 7-OH AA I 2.48, n = 6, read-out: Vz/F
Documented Vd/F across a set of compounds
Property: Vd/F

1. COc1cccc2c1cc([N+](=O)[O-])c1c(C(=O)O)cc3c(c12)OCO3: 2.75 L/kg
2. O=C(O)c1cc2c(c3c1c([N+](=O)[O-])cc1ccccc13)OCO2: 0.55 L/kg
3. COc1cc(O)cc2c1cc([N+](=O)[O-])c1c(C(=O)O)cc3c(c12)OCO3: 30.6 L/kg
4. COc1c(O)ccc2c1cc([N+](=O)[O-])c1c(C(=O)O)cc3c(c12)OCO3: 17.5 L/kg

* * *

# Protocol Text: Stability of AAs in rat plasma (QC samples, HPLC-MS/MS)
# Assay type: in vitro ADME
# Recorded Conditions: rat plasma stored at –20 °C for 14 days; low QC conc ng/mL: AA I 1.83, AA II 8.00, AA C 186.3, AA D 36.8, 7-OH AA I 82.0; n = 5
Property: Long-term stability (RSD/%)

1. COc1cc(O)cc2c1cc([N+](=O)[O-])c1c(C(=O)O)cc3c(c12)OCO3 [AA D]: 5.2
2. COc1c(O)ccc2c1cc([N+](=O)[O-])c1c(C(=O)O)cc3c(c12)OCO3 [7-OH AA I]: 2.0
3. COc1cccc2c1cc([N+](=O)[O-])c1c(C(=O)O)cc3c(c12)OCO3 [AA I]: 0.28
4. O=C(O)c1cc2c(c3c1c([N+](=O)[O-])cc1ccccc13)OCO2 [AA II]: 1.2

* * *

# Protocol Text: Stability of AAs in rat plasma (QC samples, HPLC-MS/MS)
# Type: in vitro ADME
# Recorded Conditions: rat plasma, three freeze-thaw cycles (–20 °C 24 h, thawed at room temperature); high QC conc ng/mL: AA I 1830, AA II 3200, AA C 2980, AA D 3680, 7-OH AA I 3280; n = 5
Documented Freeze-thaw stability (RSD/%) across a set of compounds
Property: Freeze-thaw stability (RSD/%)

1. COc1cc(O)cc2c1cc([N+](=O)[O-])c1c(C(=O)O)cc3c(c12)OCO3: 14.3
2. COc1cccc2c1cc([N+](=O)[O-])c1c(C(=O)O)cc3c(c12)OCO3: 12.9
3. O=C(O)c1cc2c(c3c1c([N+](=O)[O-])cc1ccccc13)OCO2: 14.3
4. COc1c(O)ccc2c1cc([N+](=O)[O-])c1c(C(=O)O)cc3c(c12)OCO3: 13.4

* * *

# Protocol Text: Multi-component pharmacokinetics of AAs in rats after oral administration of AF and HAF extracts (HPLC-MS/MS of plasma)
# Parameters: species or system Sprague–Dawley (SD) rats
# Recorded Conditions: Sprague-Dawley, rat, in vivo, 8 mg/kg, HAF extract, mid dose (8.0 mg/kg as AA I), analyte dose mg/kg: AA I 8.0, AA II 0.69, AA C 4.09, AA D 4.03, 7-OH AA I 6.62, n = 6, read-out: Vz/F
Property: Vd/F

1) O=C(O)c1cc2c(c3c1c([N+](=O)[O-])cc1ccccc13)OCO2: 0.49 L/kg
2) COc1cc(O)cc2c1cc([N+](=O)[O-])c1c(C(=O)O)cc3c(c12)OCO3: 37.8 L/kg
3) COc1c(O)ccc2c1cc([N+](=O)[O-])c1c(C(=O)O)cc3c(c12)OCO3: 25.4 L/kg
4) COc1cccc2c1cc([N+](=O)[O-])c1c(C(=O)O)cc3c(c12)OCO3: 4.58 L/kg

* * *

# Protocol Text: Multi-component pharmacokinetics of AAs in rats after oral administration of AF and HAF extracts (HPLC-MS/MS of plasma)
# Parameters: species or system Sprague–Dawley (SD) rats
# Recorded Conditions: Sprague-Dawley, rat, in vivo, 8 mg/kg, HAF extract, mid dose (8.0 mg/kg as AA I), analyte dose mg/kg: AA I 8.0, AA II 0.69, AA C 4.09, AA D 4.03, 7-OH AA I 6.62, n = 6, read-out: CLz/F (converted)
Documented CL/F across a set of compounds
Property: CL/F (L/h/kg)

1) O=C(O)c1cc2c(c3c1c([N+](=O)[O-])cc1ccccc13)OCO2: 0.07
2) COc1c(O)ccc2c1cc([N+](=O)[O-])c1c(C(=O)O)cc3c(c12)OCO3: 6.55
3) COc1cccc2c1cc([N+](=O)[O-])c1c(C(=O)O)cc3c(c12)OCO3: 0.68
4) COc1cc(O)cc2c1cc([N+](=O)[O-])c1c(C(=O)O)cc3c(c12)OCO3: 11.4

* * *

# Protocol Text: Multi-component pharmacokinetics of AAs in rats after oral administration of AF and HAF extracts (HPLC-MS/MS of plasma)
# Parameters: species or system Sprague–Dawley (SD) rats
# Recorded Conditions: Sprague-Dawley, rat, in vivo, 15 mg/kg, AF extract, high dose (15.0 mg/kg as AA I), analyte dose mg/kg: AA I 15.0, AA II 1.05, AA C 7.09, AA D 8.00, 7-OH AA I 11.66, n = 6, read-out: Vz/F
Property: Vd/F (L/kg)

1. COc1c(O)ccc2c1cc([N+](=O)[O-])c1c(C(=O)O)cc3c(c12)OCO3: 52.3
2. COc1cc(O)cc2c1cc([N+](=O)[O-])c1c(C(=O)O)cc3c(c12)OCO3: 153
3. O=C(O)c1cc2c(c3c1c([N+](=O)[O-])cc1ccccc13)OCO2: 0.82
4. COc1cccc2c1cc([N+](=O)[O-])c1c(C(=O)O)cc3c(c12)OCO3: 7.13

* * *

# Protocol Text: Stability of AAs in rat plasma (QC samples, HPLC-MS/MS)
# Type: in vitro ADME
# Recorded Conditions: prepared rat plasma samples at room temperature for 24 h; low QC conc ng/mL: AA I 1.83, AA II 8.00, AA C 186.3, AA D 36.8, 7-OH AA I 82.0; n = 5
Documented Post-preparation stability (RSD/%) across a set of molecules
Property: Post-preparation stability (RSD/%)

1. COc1cc(O)cc2c1cc([N+](=O)[O-])c1c(C(=O)O)cc3c(c12)OCO3: 4.5%
2. O=C(O)c1cc2c(c3c1c([N+](=O)[O-])cc1ccccc13)OCO2: 4.4%
3. COc1cccc2c1cc([N+](=O)[O-])c1c(C(=O)O)cc3c(c12)OCO3: 0.65%
4. COc1c(O)ccc2c1cc([N+](=O)[O-])c1c(C(=O)O)cc3c(c12)OCO3: 5.1%

* * *

# Protocol Text: Multi-component pharmacokinetics of AAs in rats after oral administration of AF and HAF extracts (HPLC-MS/MS of plasma)
# Set-up: species or system Sprague–Dawley (SD) rats
# Recorded Conditions: Sprague-Dawley, rat, in vivo, 15 mg/kg, AF extract, high dose (15.0 mg/kg as AA I), analyte dose mg/kg: AA I 15.0, AA II 1.05, AA C 7.09, AA D 8.00, 7-OH AA I 11.66, n = 6, read-out: t 1/2z (converted)
Property: half-life (min)

1) COc1cccc2c1cc([N+](=O)[O-])c1c(C(=O)O)cc3c(c12)OCO3 [AA I]: 328
2) O=C(O)c1cc2c(c3c1c([N+](=O)[O-])cc1ccccc13)OCO2 [AA II]: 310
3) COc1c(O)ccc2c1cc([N+](=O)[O-])c1c(C(=O)O)cc3c(c12)OCO3 [7-OH AA I]: 207
4) COc1cc(O)cc2c1cc([N+](=O)[O-])c1c(C(=O)O)cc3c(c12)OCO3 [AA D]: 173
